Attribution: PubChem BioAssay (NCI)

test system: DU-145 prostate; experiment: NCI-60 one-dose screen, 48 h (100 = growth as untreated, 0 = no growth, -100 = all killed); conditions: 10 µM unless noted
About 83,000 compounds went through this panel and 20% of them were active in at least one assay; those are over-represented in the sample as a whole.
For each record, check the reported growth: if it is below 80% write true, else write false.

Example results:
O=C1Nc2c(ccc(Cl)c2Cl)/C1=C\c1ccc(C(F)(F)F)cc1 | false
CN(C)CCCNc1c2ccccc2nc2ccccc12 | false
Cc1ncc(C(=O)Nc2ccc(CN3CCN(C)CC3)c(C(F)(F)F)c2)cc1C#Cc1cnc2cccnn12 | true

In plain terms, does Cc1cc(N2CCCC2)nc(NC2CCCC(Nc3ccnc4cc(Cl)ccc34)C2)n1 (stereo not given) come in under 80% for growth?
true

----------
tested on: NCI-H322M lung; assay: NCI-60 one-dose screen, 48 h (100 = growth as untreated, 0 = no growth, -100 = all killed); details: 10 µM unless noted
Compounds without any hit were thinned out: in the full panel of roughly 83,000, 20% have a hit. Calls of active or inactive are those of the source. How the source made its calls: active means growth percent below 10; inactive means the rest.
The compounds listed here are annotated with their growth.

The examples below pair each entry with its known result.
COc1ccc(CCNc2nc(SC)nc(-c3cccc([N+](=O)[O-])c3)c2C#N)cc1OC | 88.2% (inactive)
COc1ccc(NC2=C(Sc3nc(C)cc(C)n3)C(=O)N(Cc3ccccc3)C2=O)cc1Cl | 111% [30 µM] (inactive)
O=C(N/N=C/c1c[nH]c2ccccc12)c1cc(-c2ccccc2)on1 | 82.9% (inactive)
COc1ccc(-n2nc(C)c3c(Oc4ccc(NC(=O)Nc5c(Cl)cccc5Cl)cc4)ncnc32)cc1 | 96.8% (inactive)
O=C1/C(=C/c2ccccc2)SC(=S)N1CCc1ccc(O)cc1 | 97.1% (inactive)

Continue with the compound presented below.
So what's the measured growth for this one? O=C(O)c1c(=O)cccc2ssc12
62.1% (inactive)

----------
test system: SF-539 CNS; assay: NCI-60 one-dose screen, 48 h; conditions: 10 µM unless noted
Compounds without any hit were thinned out: in the full panel of roughly 83,000, 20% have a hit. The source made the active and inactive calls. How the source made its calls: active means growth percent below 10; inactive means the rest.
// allowed return values: YES for active, NO for inactive

Some entries whose results are on file:
CCc1nc(N)nc(N)c1C#CC(C)c1ccc(-c2ccncc2)cc1Cl (centres undefined) | YES
O=C(Nc1ccccc1Cl)c1ccc(NC2=C(Cl)C(=O)N(C3CCCCC3)C2=O)cc1 | NO
CC(C)(C)c1cc(C(C)(C)C)cc(S(=O)(=O)Nc2cc3ccccc3cc2C(=O)NCCN)c1 | NO
COc1cc(/C=C/C(=O)Nc2cccnc2Nc2ccc(F)cc2)cc(OC)c1OC | NO
Cn1c(O)c(N=NC(=O)c2cc(-c3ccccc3)on2)c2ccccc21 | NO

How did this test come out for O=C(N/N=C/c1c[nH]c2ccccc12)c1cc(-c2ccccc2)on1 ?
NO

Given O=C1NC(=S)NC(=O)C1CC(=O)n1c(-c2ccccc2)nc2ccccc21 , state the outcome it received in this test.
NO

Field: outcome | Entry: COc1cccc(-c2nc(SCC(=O)Nc3ccc(C(=O)/C=C/c4ccc(OC)c(OC)c4)cc3)[nH]c(=O)c2C#N)c1
NO

Field: outcome | Entry: O=C1/C(=C/c2cn(-c3ccccc3)nc2-c2ccccc2)SC(=S)N1CCc1ccccc1
NO

Tell me the recorded outcome of this test for N#Cc1nnn(-c2ccc(S(N)(=O)=O)cc2)c1NCC(=O)c1ccccc1 .
NO

Recorded call for CC(=O)O[C@H]1[C@@H]2OC(=O)C(CSc3ccccc3)[C@@H]2C[C@H]2O[C@]2(C)CC/C=C(\C)CCC[C@@H]1C (some centres undefined) ?
NO

Please indicate how the test categorized COc1ccc2c(c1)c(-c1nonc1-c1cn(C)c3ccccc13)cn2C .
YES

# outcome recorded in this test, key = COc1ccc(-n2nc(C)c3c(Nc4ccc(NC(=O)Nc5cc(C(F)(F)F)ccc5F)cc4)ncnc32)cc1
NO

Recorded call for CCN(CC)S(=O)(=O)c1ccc(OC)c(NC(=O)c2[nH]c(C)c3c2CCCCC3=O)c1 ?
NO

How did this test come out for COC(=O)[C@]12CCC(C)(C)C[C@H]1[C@H]1C(=O)C[C@@H]3[C@@]4(C)c5c([nH]c6ccccc6c5=O)C(C)(C)[C@@H]4CC[C@@]3(C)[C@]1(C)CC2 ?
NO
